- system_under_test: Vascular endothelial growth factor receptor 2 (Homo sapiens)
- Sequence (P35968 whole entry, the tested form may be a part): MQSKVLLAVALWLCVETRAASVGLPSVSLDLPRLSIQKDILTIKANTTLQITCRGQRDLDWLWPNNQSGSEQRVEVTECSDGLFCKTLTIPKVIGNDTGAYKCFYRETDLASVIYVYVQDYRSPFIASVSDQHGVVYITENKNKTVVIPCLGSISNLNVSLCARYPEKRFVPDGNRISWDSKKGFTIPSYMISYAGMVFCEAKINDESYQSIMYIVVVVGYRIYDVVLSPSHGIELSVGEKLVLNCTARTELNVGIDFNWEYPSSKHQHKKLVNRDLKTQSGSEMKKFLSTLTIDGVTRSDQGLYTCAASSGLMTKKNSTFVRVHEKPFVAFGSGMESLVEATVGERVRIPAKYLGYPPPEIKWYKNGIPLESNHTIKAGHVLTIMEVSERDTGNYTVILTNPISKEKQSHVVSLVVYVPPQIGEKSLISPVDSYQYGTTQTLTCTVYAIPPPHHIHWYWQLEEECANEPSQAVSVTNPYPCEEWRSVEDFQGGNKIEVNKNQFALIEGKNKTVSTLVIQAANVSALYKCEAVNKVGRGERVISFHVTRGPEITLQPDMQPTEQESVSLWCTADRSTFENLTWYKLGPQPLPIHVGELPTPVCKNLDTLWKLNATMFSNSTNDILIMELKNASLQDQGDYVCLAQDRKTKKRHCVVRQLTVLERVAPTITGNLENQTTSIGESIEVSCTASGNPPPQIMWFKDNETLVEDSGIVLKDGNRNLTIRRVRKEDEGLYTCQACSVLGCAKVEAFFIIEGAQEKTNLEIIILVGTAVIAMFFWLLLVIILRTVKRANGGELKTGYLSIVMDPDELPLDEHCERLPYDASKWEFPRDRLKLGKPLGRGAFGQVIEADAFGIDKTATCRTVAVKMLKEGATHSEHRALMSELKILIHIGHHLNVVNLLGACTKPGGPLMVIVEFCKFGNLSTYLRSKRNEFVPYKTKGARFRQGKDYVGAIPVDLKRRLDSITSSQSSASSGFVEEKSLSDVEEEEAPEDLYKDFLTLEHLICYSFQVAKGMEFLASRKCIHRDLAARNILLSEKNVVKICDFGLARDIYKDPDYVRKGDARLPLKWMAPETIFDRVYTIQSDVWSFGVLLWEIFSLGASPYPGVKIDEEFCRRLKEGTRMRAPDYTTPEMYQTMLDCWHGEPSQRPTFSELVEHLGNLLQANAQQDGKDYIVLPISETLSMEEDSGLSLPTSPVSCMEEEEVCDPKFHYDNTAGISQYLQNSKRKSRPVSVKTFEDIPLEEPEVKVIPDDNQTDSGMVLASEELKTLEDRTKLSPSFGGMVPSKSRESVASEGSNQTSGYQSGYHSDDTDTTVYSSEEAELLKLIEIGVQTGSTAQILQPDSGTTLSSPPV
- assay_explanation: Inhibition of human recombinant GST-tagged VEGFR2 (catalytic domain 805 to 1356 residues) expressed in Sf9 insect cells incubated for 45 mins by Kinase-Glo assay
observable: pIC50
pIC50 is a log-scale quantity: -log10 of the concentration expressed in molar.

Qu. // query pIC50 value for entry COc1cc2ncnc(-n3ncc4cc(NC(=O)Nc5ccc(C)c(Cl)c5)ccc43)c2cc1OC
Ans. 8.30

* * *

- system_under_test: Epidermal growth factor receptor (Homo sapiens, UniProt P00533, T790M)
- Sequence (P00533 25-1210 T790M limits assumed): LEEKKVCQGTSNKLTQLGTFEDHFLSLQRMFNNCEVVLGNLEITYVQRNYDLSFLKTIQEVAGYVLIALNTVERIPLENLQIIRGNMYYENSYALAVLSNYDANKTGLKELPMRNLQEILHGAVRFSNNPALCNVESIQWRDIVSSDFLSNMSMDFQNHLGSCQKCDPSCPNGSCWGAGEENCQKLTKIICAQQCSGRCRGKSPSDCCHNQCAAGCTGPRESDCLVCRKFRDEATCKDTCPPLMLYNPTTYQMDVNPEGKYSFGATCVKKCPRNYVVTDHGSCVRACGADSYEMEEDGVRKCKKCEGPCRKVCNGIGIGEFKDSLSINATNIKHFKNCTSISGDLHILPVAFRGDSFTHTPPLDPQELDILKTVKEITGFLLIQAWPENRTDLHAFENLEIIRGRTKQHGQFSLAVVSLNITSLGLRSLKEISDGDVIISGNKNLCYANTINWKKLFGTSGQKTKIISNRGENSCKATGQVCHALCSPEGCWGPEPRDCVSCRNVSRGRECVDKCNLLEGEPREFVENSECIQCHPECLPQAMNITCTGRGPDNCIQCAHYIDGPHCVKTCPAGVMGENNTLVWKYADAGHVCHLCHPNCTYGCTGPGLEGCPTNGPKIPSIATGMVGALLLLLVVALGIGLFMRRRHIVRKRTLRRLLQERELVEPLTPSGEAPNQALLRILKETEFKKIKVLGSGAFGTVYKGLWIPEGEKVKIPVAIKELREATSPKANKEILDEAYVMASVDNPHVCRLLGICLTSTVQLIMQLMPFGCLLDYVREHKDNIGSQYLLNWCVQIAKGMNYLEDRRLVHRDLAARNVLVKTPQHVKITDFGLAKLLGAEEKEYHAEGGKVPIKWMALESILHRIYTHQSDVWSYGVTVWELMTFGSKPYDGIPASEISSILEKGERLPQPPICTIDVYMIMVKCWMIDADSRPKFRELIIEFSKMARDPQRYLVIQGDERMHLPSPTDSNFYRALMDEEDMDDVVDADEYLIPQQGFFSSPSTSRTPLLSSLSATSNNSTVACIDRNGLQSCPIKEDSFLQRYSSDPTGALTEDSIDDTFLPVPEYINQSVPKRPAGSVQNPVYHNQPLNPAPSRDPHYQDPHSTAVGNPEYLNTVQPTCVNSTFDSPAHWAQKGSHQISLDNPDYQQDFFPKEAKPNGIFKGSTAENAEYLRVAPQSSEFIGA
- assay_explanation: Inhibition of EGFR T790M mutant (unknown origin)
observable: IC50 (nM)
Quick reminder: number only, in nM, skip the unit.

Qu. Reported IC50 for Epidermal growth factor receptor (Homo sapiens, UniProt P00533, T790M), given C=CC(=O)Nc1ccc(Nc2ncnc3cc(OC)c(OCCN4CCOCC4)cc23)cc1 ?
Ans. 4.3

Where do the numbers come from? From ChEMBL document CHEMBL4342409.
